Reference source for all entries: patent US20240075139A1

- ASSAY SYSTEM: EBOV Mayinga (GenBank: NC_002549) (Zaire Ebolavirus (EBOV Mayinga)) (UniProt Q05320)
- ASSAY INFO: cell-based or functional assay
log10(neutralization concentration (GMC, CPE reduction on Vero C1008 cells)) by entry:
RESULT TYPE: log10(neutralization concentration (GMC, CPE reduction on Vero C1008 cells)) (log10 of the value in µg/mL)

>>> reported_measurement("1T0227 (antibody, V domains shown) VH: EVQLVESGGGLVKPGGSLRLSCAASGFTFRNAWMNWVRQAPGKGLEWVGRIKSRADGGPTDYAAPVKGRFTISRDDSKNTLYLQMNSLKSEDTAVYYCTTHVPDYNSAYYWVYWGQGTLVTVSS VL: QSVLTQPPSVSGAPGQRVTISCTGSSSNIGAGYDVYWYQQLPGTAPKLIIYGNNNRPSGVPDRFSASKSGPSASLAITGLQAEDEADYYCQSYDIRLSDNYVFGTGTKVTVL")
0.27
>>> reported_measurement("4T0444 (antibody, V domains shown) VH: EVQLVVSGGGLVQPGGSLRLSCAASGFTLKSYDIHWVRQRPGEGLEWVAAIGAAGDTYFSGSVKGRFTISRENARNSLYLQMNSLGAGDTAIYYCARARFGDLALDYWGQGILVTVSS VL: EIVLTQSPGTLSLSPGERATLSCRSSQSVSSNSLAWYQQKPGQAPRLLIYGASSRAAGIPDRFSGSGSGTDFTLTISRLQPEDFAVFFCHQYSSSPLTFGGGTKVEIK")
0.08
>>> reported_measurement("5T0451 (antibody, V domains shown) VH: EVQLVESGGGLVKPGGSLRLSCAASGFTFTNAWMNWVRQAPGKGLEWIGRIKSKGDGGTADHAAPVRGRFIISRDDSKQMLYLQMTGLKSDDTAVYYCTRGPYDNFSGWRDYWGQGTLVTVSS VL: QSVLTQPPSVSGAPGQRVTISCTGSGSNIGAGYDVQWYQQHPGTAPKVLIYGNNKRPSGVPDRFSGSKSGTSASLAITGLQAEDEAHYYCQSYDARLRDSWVFGGGTQLTVL")
0.02
>>> reported_measurement("4T0570 (antibody, V domains shown) VH: QVQLVQSGAEVKKPGASIKVSCKASGYTFVSKYIHWVRQAPGQGLEWMGIINPSGGRTDYAQKFQGRVTISRDTSTSTVYMELSSLRSEDTAFYYCARALPFRVTGARDVFDIWGQGTMVTVSS VL: DIQMTQSPSSLSASVGDRVTITCRASQGISTNLAWFQQRPGKAPKSLVYAASTLQNGVPSKFSGSGSGTDFTLTISSLQPEDFATYYCQQYYTYPLTFGGGTKVEIK")
-1.05
>>> reported_measurement("1T0139 (antibody, V domains shown) VH: QVQLQESGPGLVKPSETLSLTCIVSGGSLSSYYWSWVRQPAGKGLQWIGHIYTTGSTNYNPSLKSRVTMSIDTSKNQFSLRLSSVTAADTAVYYCARESYRYNAYDIHPFDYWGQGTLVTVSS VL: SYELTQSSSVSVSPGQTASITCSGDKLGDNYVCWYQQKPGQSPTLVIYQDNRRPSGIPERFSGSNSGNTATLTIRGTQALDEADYYCQAWASNTVVFGGGTKLTVL")
0.87
>>> reported_measurement("3T0253 (antibody) heavy: EVQLVESGGGLVKPGRSLRISCAASGITFNKAWMNWVRLAPGKGLEWVGRIKSNGDGGKRDYAAPVTGRFTISRDDSKNTLYLQMNSLKTEDTAVYFRTTRHHRGMDVWGQGTTVTVSS light: QSVLTQPPSVSGAPGQRVTISCTGSSSNIGAGYDVHWYQHLPGAAPKLLIYGDGSRPSGVPDRFSASKSGTSASLAITGLQAEDEADYYCQSYDSSLSDAVVFGGGTKLTVL")
0.12
